# system-name: GST-ERRα ligand-binding domain (Homo sapiens, UniProt P11474)
# Sequence (P11474 193-421 limits assumed): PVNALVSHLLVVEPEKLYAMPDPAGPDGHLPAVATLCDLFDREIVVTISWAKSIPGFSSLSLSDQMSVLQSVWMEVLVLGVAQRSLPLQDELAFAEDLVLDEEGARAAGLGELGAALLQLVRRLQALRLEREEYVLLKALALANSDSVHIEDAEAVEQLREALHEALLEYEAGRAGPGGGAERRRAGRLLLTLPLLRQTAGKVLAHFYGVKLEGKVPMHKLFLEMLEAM
# measurement-notes: HTRF assay system using ERRα ligand-binding domain (biotinylated SRC-1 (676-700) peptide)
# Format: biochemical
# condition-details: compound final concentration 3 μM, room temperature 2 hr; 615/665 ratio value; no compound = 0%, 10 μM XCT-790 = 100%; read-out: inhibition rate (%) at 3 μM
measure-name: inhibition at 3 µM (%)

INSERT INTO assay_data (compound, unit_text, observed_measurement) VALUES
  ('COc1cc(/C=C2\SC(=O)N=C2NCC(C)(C)O)ccc1Oc1ccc(C#N)cc1C(F)(F)F [Example 116]', '%', 105),
  ('CCN1C(=N)/C(=C/c2ccc(OCc3ccc(C(F)(F)F)cc3C(F)(F)F)c(OC)c2)N(C)C1=O [Example 32]', '%', 103),
  ('COc1cc(/C=C2\SC(=O)N=C2NCCC2CCCN2C)ccc1Oc1ccc(C#N)cc1C(F)(F)F (centres unmarked) [Example 93]', '%', 105),
  ('COc1cc(/C=C2\SC(=O)N=C2NCCC2CCCN2C)ccc1Oc1ccc(C#N)c2ccccc12 (centres unmarked) [Example 96]', '%', 114),
  ('CCN1C(=N)/C(=C/c2ccc(Oc3ccc(C#N)cc3C(F)(F)F)c(OC)c2)NC1=O [Example 25]', '%', 98),
  ('CCN(CC)CCNC1=NC(=O)S/C1=C\c1ccc(Oc2ccc(C(F)(F)F)cc2Cl)c(OC)c1 [Example 94]', '%', 107),
  ('CCN1C(=N)/C(=C\c2ccc(Oc3ccc(C#N)cc3C(F)(F)F)c(OC)c2)N(C)C1=O [Example 143]', '%', 92),
  ('CCN1C(=N)/C(=C/c2ccc(Oc3ccc(C#N)cc3C(F)(F)F)c(OC)c2)N(C)C1=O [Example 145]', '%', 93);

* * *

# system-name: fusion protein containing GAL4-DNA-binding domain and ERR full-length (Homo sapiens, UniProt P11474)
# Construct: expressed in transfected cells; host or cells: 293T cells
# Sequence (P11474 whole entry, the tested form may be a part): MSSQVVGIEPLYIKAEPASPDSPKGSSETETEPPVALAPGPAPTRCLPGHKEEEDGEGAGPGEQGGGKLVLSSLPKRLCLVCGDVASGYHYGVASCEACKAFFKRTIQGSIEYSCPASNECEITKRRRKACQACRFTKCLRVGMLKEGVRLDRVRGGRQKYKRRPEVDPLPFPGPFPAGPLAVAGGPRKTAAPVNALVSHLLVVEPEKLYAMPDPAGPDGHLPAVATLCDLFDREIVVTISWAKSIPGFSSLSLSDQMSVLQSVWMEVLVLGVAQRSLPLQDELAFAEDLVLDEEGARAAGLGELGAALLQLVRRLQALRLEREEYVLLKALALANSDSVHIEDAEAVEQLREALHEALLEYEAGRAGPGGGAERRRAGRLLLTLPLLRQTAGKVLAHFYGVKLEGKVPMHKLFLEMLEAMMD
# measurement-notes: Reporter assay system using 293T cells (GAL4-ERR luciferase, inverse agonist activity)
# Assay type: cell-based
# condition-details: HEK-293T; compound final concentration 3 μM, 1 day; luciferase activity in 293T cells; no compound = 0%, 10 μM XCT-790 = 100%; read-out: inhibition rate (%) at 3 μM
measure-name: inhibition at 3 µM (%)

INSERT INTO measurements (compound, observed_measurement) VALUES
  ('COc1cc(/C=C2\SC(=O)N=C2NCCC2CCCN2C)ccc1Oc1ccc(C#N)cc1C(F)(F)F (stereo not shown)', 88),
  ('CCN1C(=N)/C(=C/c2ccc(OCc3ccc(C(F)(F)F)cc3C(F)(F)F)c(OC)c2)N(C)C1=O', 91),
  ('CCN(CC)CCNC1=NC(=O)S/C1=C\c1ccc(Oc2ccc(C(F)(F)F)cc2Cl)c(OC)c1', 90),
  ('CCN1C(=N)/C(=C/c2ccc(Oc3ccc(C#N)cc3C(F)(F)F)c(OC)c2)NC1=O', 89);
